tested.on: T1, Clostridium difficile toxin B (whole toxin B) (Clostridium difficile)
T1 construct: also called TcdB; tcdB
method: biolayer interferometry (Octet QKe); biotinylated antibody on streptavidin sensor, toxin B 50-0.78 nM
measured.metric: kon (M⁻¹ s⁻¹)
Write the answer as a number in M⁻¹ s⁻¹, unit excluded.

Reported kon, binder CAN33G1 (antibody, V domains shown, also called murine CAN33G1; CAN33 mAb) VH: EVQLQQSGPDLVKPGASVKISCKASGYSFTGYYMHWVKQSHGKSLEWIGRVNPYNGDTNYNQNFKDKAILTVDKSASTAYMEFRSLTSEDSAVYYCTRSNWENYFDYWGQGSTLTVSS VL: DIQLTQSSSSFSVSLGDRVTITCKASEDIYNRLAWYQQRPGNAPRLLISGATSLETGIPSRFSGSGSGKEYTLSIASLQTEDFVTYYCQQYWNIPTFGGGTRLEIK : ____
54400

Entry source: patent US20150290319A1
